property.name: melting point

For orientation, consider the following solved cases.
The reported value for Cc1nc(Nc2ccccc2)sc1C(=O)c1ccc(Cl)c([N+](=O)[O-])c1 in terms of melting point is 162 to 165 °C

The reported value for CNC(=S)Nc1ncc(Cl)cc1Cl in terms of melting point is 105 to 109 °C

The reported value for COc1c(C)cnc(CS(=O)c2nc3c(C)c(OC)c(C)cc3[nH]2)c1C (stereo unspecified) in terms of melting point is 137 °C

---
The reported value for O=C(Nc1ccc(Cl)cc1)Oc1ccc2c(c1)N(Cc1ccccc1)CCC2 in terms of melting point is 120 °C

The reported value for OCC1CN(Cc2ccccc2)CCc2c1[nH]c1ccccc21 (stereo unspecified) in terms of melting point is 95 °C

The reported value for CCCCCCCCCc1cc(C=CC(=O)N2CCN(c3ccc(NC(=N)c4cccs4)cc3)CC2)cc(CCCCCCCCC)c1O in terms of melting point is 103 to 105 °C

The reported value for Nc1nc(Cl)cc(C=C(Cl)Cl)n1 in terms of melting point is 119 to 120 °C

The reported value for CC(C)c1cc(Br)c(C(C)C)cc1S in terms of melting point is 72 to 75 °C

The reported value for Cn1nncc1-c1cc(C=O)c2occc2c1 in terms of melting point is 180 to 182 °C

---

property.name: melting point

For orientation, consider the following solved cases.
The reported value for Cc1cccc(C(=O)c2ccc(O)cc2)c1C in terms of melting point is 155 to 158 °C

The reported value for COc1ccc(N(C)c2nc(C)nc3oc4c(c23)CCCC4)cc1 in terms of melting point is 147 to 149 °C

The reported value for COC(=O)c1cc(C(C)=O)c(O)cc1O in terms of melting point is 124 to 126 °C

The reported value for COc1ccc(Cn2cnc3c(-c4ccco4)nc(I)nc32)cc1 in terms of melting point is 145 to 148 °C

The reported value for CC(C)(C)C(O)C(CSc1ccc(Cl)cc1)n1cncn1 (stereo not given) in terms of melting point is 84 °C

The reported value for O=C(O)c1cccc2ccc(CBr)cc12 in terms of melting point is 210 to 211 °C

The reported value for O=C(O)Cc1c[nH]c2nc(Nc3ccccc3)nn2c1=O in terms of melting point is 279 to 281 °C

The reported value for CCC1c2ccc(C#N)n2-c2ccc(F)cc2N1S(=O)(=O)c1ccc(O)c(C)c1 (stereo not given) in terms of melting point is 192 to 194 °C

---
The reported value for CS(=O)(=O)Nn1c(=O)[nH]c2cc(C(F)(F)F)c(-n3cnc(C#N)c3)cc2c1=O in terms of melting point is 143 to 145 °C

The reported value for Nc1ccccc1CCc1n[nH]c2c1c(=O)n(-c1ccccc1)c1ncccc21 in terms of melting point is 289 to 291 °C

---

Measured melting point by item

For orientation, consider the following solved cases.
The reported value for CCOC(=O)c1cc(Br)cc2c(=O)cc(-c3cccc(OCc4ncc5ccccc5n4)c3)oc12 in terms of melting point is 246 °C

The reported value for Cn1nc(-c2ccc(Cl)cc2)c2cc3ccccc3cc21 in terms of melting point is 157 to 159 °C

The reported value for c1cncc(-c2nccs2)c1 in terms of melting point is 44 to 45 °C

The reported value for Cc1nc2n(c(=O)c1CCN1CCN(c3noc4cc(F)ccc34)CC1)CCS2 in terms of melting point is 193 °C

The reported value for COc1ccc(OC)c(S(=O)(=O)N2CCC(N3N=C(c4ccc(OC)c(OC)c4)CCC3=O)CC2)c1 in terms of melting point is 184 to 185 °C

The reported value for Nc1cccc(Cn2c(-c3ccc(NC(=O)c4ccccc4)cc3)ccc2-c2ccccc2Cl)n1 in terms of melting point is 196 to 198 °C

The reported value for CCCCCCCCCCCCCCCCCCS(=O)(=O)c1cc(C(=O)OC)c([N+](=O)[O-])c(C(=O)OC)c1 in terms of melting point is 98 to 100 °C

The reported value for CC(C(=O)O)=C(NC(=O)C(F)(F)F)c1ccccc1 in terms of melting point is 140 °C

---
The reported value for CCCc1c(OCc2cccn3c(=O)c(CC(=O)O)cnc23)ccc(C(C)=O)c1O in terms of melting point is 239 to 243 °C

The reported value for N=C(N)c1ccc(-c2ccc(N3CCN(CCC(=O)O)S3(=O)=O)cc2)cc1 in terms of melting point is > 260 °C

The reported value for CC(C)(C)C(=O)OCOP(=O)(CCCCc1ccccc1)CC(=O)O (stereo unspecified) in terms of melting point is 48 to 50 °C

The reported value for NC(=NOC1CCCCO1)Nc1c(Cl)cccc1Cl (stereo unspecified) in terms of melting point is 178 to 180 °C

The reported value for CC(C)(C)OC(=O)c1ncn2c1CN=C(c1ccccc1)c1cc(Br)ccc1-2 in terms of melting point is 222 to 223 °C

The reported value for CC(C(=O)O)c1ccc(N)cc1 (stereo unspecified) in terms of melting point is 125 to 129 °C

The reported value for O=C(O)C1Cc2cc(CCNS(=O)(=O)c3ccccc3)ccc2O1 (stereo unspecified) in terms of melting point is 132 to 133 °C

The reported value for CC(C)(C)OC(=O)N[C@H]1COc2ccccc2NC1=O in terms of melting point is 202 to 203 °C

The reported value for O=C(O)c1cc(S)cc(C(=O)O)c1 in terms of melting point is 240 to 246 °C

The reported value for CCC(C)COC(=O)c1ccc(OC(=O)c2ccc(O)cc2)cc1 (stereo unspecified) in terms of melting point is 90.8 to 92.6 °C

The reported value for O=C(O)[C@@H](O)Cc1ccc(O)c([N+](=O)[O-])c1 in terms of melting point is 111 °C

The reported value for CCOC1CCC2(CC1)NC(=O)C(c1cc(Br)ccc1C)=C2O (stereo unspecified) in terms of melting point is 138 °C

The reported value for c1ccc2c(c1)c1ccccc1n2CCCCCCn1c2ccccc2c2ccccc21 in terms of melting point is 124 to 126 °C

The reported value for CCN(CC)CCN=C=S in terms of melting point is 83 to 83.5 °C

The reported value for COc1ccc2[nH]c(S(=O)Cc3cc(N4CCOCC4)c(F)cn3)nc2c1 (stereo unspecified) in terms of melting point is 109 to 111 °C

The reported value for CC(C)(C(=O)O)C(=O)NCCc1cn(C(c2ccccc2)(c2ccccc2)c2ccccc2)cn1 in terms of melting point is 161 to 162 °C
